Assignment: determine reported IC50 IFN-γ, whole blood Donor A, recombinant mAb for the given binders.
measurementTarget: human Orai1 (human, UniProt Q96D31 1-301)
Sequence (Q96D31 whole entry): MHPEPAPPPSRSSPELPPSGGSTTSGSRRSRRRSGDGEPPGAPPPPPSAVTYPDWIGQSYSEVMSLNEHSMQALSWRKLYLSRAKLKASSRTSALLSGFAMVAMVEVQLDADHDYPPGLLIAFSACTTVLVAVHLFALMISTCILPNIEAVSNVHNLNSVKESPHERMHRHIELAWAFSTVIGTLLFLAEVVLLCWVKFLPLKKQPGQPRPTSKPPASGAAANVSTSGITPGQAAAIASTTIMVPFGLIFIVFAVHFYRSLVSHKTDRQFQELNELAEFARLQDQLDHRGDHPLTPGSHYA
testMethodNotes: cell-based or functional assay
Give your result in nM as a bare value.

So, mAb 5B5.1 (antibody, human IgG2, lambda, V domains shown, fully human IgG2 lambda, Campaign 2, recombinant; same chains as 5B5.2) VH: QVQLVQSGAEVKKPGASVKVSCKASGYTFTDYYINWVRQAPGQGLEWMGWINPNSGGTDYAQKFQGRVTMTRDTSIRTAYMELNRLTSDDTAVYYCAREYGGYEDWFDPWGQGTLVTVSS VL: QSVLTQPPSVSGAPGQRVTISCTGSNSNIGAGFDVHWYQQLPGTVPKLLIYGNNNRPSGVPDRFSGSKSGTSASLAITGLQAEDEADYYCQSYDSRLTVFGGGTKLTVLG ? Its IC50 IFN-γ, whole blood Donor A, recombinant mAb was 0.8

# IC50 IFN-γ, whole blood Donor A, recombinant mAb of mAb 5F2.1 (antibody, human IgG2, lambda, V domains shown, fully human IgG2 lambda, Campaign 2) VH: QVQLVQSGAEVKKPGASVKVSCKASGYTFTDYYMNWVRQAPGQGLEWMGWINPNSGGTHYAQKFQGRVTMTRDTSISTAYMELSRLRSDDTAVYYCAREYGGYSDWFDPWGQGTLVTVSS VL: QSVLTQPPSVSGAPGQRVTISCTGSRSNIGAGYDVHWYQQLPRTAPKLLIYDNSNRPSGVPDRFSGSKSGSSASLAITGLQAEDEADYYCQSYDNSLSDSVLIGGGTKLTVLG = 11.1

Field IC50 IFN-γ, whole blood Donor A, recombinant mAb (entry mAb 5B1.1 (antibody, human IgG2, lambda, V domains shown, fully human IgG2 lambda, Campaign 2; also called mAb 5Bl1.1) VH: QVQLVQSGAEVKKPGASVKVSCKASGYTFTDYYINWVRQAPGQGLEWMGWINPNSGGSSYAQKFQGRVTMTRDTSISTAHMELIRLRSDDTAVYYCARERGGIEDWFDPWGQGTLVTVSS VL: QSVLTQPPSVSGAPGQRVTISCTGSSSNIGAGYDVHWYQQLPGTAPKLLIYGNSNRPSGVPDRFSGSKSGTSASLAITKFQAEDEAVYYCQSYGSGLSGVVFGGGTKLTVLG ) reads 0.52
